- tested_target: 5-HT2A receptor (Rattus norvegicus)
- Sequence (P14842 whole entry): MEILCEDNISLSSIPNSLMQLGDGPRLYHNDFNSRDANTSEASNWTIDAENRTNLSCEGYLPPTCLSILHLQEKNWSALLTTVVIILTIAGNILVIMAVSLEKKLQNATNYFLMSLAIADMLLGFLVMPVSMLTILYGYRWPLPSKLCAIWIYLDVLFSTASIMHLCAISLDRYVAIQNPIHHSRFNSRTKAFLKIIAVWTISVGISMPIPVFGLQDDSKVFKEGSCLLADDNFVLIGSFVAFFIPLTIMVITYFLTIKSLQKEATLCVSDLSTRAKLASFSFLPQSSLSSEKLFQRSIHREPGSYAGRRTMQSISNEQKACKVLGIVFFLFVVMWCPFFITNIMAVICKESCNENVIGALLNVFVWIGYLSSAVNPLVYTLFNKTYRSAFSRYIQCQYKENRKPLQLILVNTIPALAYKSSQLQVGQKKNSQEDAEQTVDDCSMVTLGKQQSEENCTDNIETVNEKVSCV
- assay_summary: 5-HT2A competition binding assay ([3H]ketanserin, frontal cortex homogenates)
- assay_context: ± SEM, read-out: 5-HT2A pKi (converted)
attribute_measured: Ki (nM)
I only need the number, in nM, no unit after it.

Worked cases, Ki given:
compound: O=C(NCCCN1CCN(c2ccc(F)cc2)CC1)C1CC2C=CC1C2 (stereo not shown)
output_unit: nM
Ki: 18.6
--
compound: O=C(NCCCN1CCN(c2ncccn2)CC1)C1CC2C=CC1C2 (stereo not shown)
output_unit: nM
Ki: 1380
--
compound: O=C(NCCCN1CCN(Cc2ccc3c(c2)OCO3)CC1)C1CC2C=CC1C2 (stereo not shown)
output_unit: nM
Ki: 372

As a next step, examine the compound that follows.
Quote Ki with test system 5-HT2A receptor (Rattus norvegicus) for O=C(NCCCN1CCN(c2ccccn2)CC1)C1CC2C=CC1C2 (stereo not shown)
355

====

- tested_target: D2 receptor (Rattus norvegicus)
- Construct: 15μg/mL of striatal homogenate was incubated in triplicate; from tissue; host or cells: rat striatum homogenate
- Sequence (P61169 whole entry): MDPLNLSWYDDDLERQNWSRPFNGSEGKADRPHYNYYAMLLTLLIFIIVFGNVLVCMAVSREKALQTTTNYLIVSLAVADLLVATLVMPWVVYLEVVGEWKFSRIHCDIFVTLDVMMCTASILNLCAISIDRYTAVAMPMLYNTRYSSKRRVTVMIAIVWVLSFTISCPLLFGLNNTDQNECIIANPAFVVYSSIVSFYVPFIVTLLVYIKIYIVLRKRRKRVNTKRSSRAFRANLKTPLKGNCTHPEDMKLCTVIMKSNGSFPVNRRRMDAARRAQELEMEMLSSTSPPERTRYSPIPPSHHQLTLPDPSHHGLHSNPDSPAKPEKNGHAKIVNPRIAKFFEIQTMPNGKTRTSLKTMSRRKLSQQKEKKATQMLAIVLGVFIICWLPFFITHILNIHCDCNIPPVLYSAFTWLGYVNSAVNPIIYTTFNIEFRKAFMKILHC
- assay_summary: Functional D2 receptor [35S]GTPγS assay (antagonist mode vs dopamine; basal for agonism);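 further: [35S]GTPγS binding counted by scintillation after 60 min at 30 °C, nonspecific binding defined with 100 µM unlabeled GTPγS, inhibition curves fitted by one-site nonlinear regression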
- Type: biochemical
- assay_context: against 40 µM dopamine, rat striatal homogenate; read-out: D2 receptor antagonistic activity IC50 (95% CI)
attribute_measured: IC50
Value and unit, in that order.

Sample answers from the record:
molecule: COc1ccc(N2CCN(CCCNC(=O)C3CC4C=CC3C4)CC2)cc1 (stereo not shown) [Norbo-7]
IC50: 51.5 µM
//
molecule: COc1ccccc1N1CCN(CCCNC(=O)C2CC3C=CC2C3)CC1 (single isomer, unassigned) [Norbo-6]
IC50: 59.5 µM

Identify measured IC50 associated with O=C(NCCCN1CCN(c2ccccc2)CC1)C1CC2C=CC1C2 (stereo not shown) [Norbo-1]
101 µM

Identify IC50 associated with the molecule COc1ccccc1N1CCN(CCCNC(=O)C2CC3C=CC2C3)CC1 (single isomer, unassigned) [Norbo-5]
33.4 µM

Hello, please tell me recorded IC50 for this one: O=C(NCCCN1CCN(c2ccccc2)CC1)C1CC2C=CC1C2 (stereo not shown) [Norbo-2]
106 µM

Please indicate IC50 recorded for O=C(NCCCN1CCN(c2ncccn2)CC1)C1CC2C=CC1C2 (stereo not shown) [Norbo-23]
255 µM

Please give measured IC50 of the following entry: COc1ccc(N2CCN(CCCNC(=O)C3CC4C=CC3C4)CC2)cc1 (stereo not shown) [Norbo-8]
60.4 µM

Supply reported IC50 belonging to this molecule: O=C(NCCCN1CCN(c2ccccc2Cl)CC1)C1CC2C=CC1C2 (stereo not shown) [Norbo-10]
21.5 µM

Tell me its IC50 given O=C(NCCCN1CCN(c2cccc(C(F)(F)F)c2)CC1)C1CC2C=CC1C2 (stereo not shown) [Norbo-20] as the entry.
52.7 µM

Provide IC50 value for the following molecule: O=C(NCCCN1CCN(C(=O)c2ccco2)CC1)C1CC2C=CC1C2 (stereo not shown) [Norbo-27]
66.6 µM

Indicate its recorded IC50; the molecule in question is Cc1cccc(N2CCN(CCCNC(=O)C3CC4C=CC3C4)CC2)c1C (stereo not shown) [Norbo-3]
71 µM

Input O=C(NCCCN1CCN(c2ccc(Cl)cc2)CC1)C1CC2C=CC1C2 (stereo not shown) [Norbo-11] , output reported IC50.
31.2 µM

Input O=C(NCCCN1CCN(c2ccc(Cl)c(Cl)c2)CC1)C1CC2C=CC1C2 (stereo not shown) [Norbo-14] , output reported IC50.
41.1 µM

Find the measured IC50 of Cc1cccc(N2CCN(CCCNC(=O)C3CC4C=CC3C4)CC2)c1C (stereo not shown) [Norbo-4] and report it.
33.1 µM
